- Assay Notes: In vitro dissolution of amorphous solid dispersions in simulated intestinal fluid at 37° C.
- Format: physicochemical
- Measurement Context: 12% load analog in PVP K-30 dispersion, SIF 37° C., t = 5 min
- Description: […] To each vial was added simulated intestinal fluid (5 mL) and each was shaken at 37° C. […] The samples were then diluted in MeOH and tested using UV method for solution concentration.
Property Label: Fold increase relative to equilibrium solubility (x)
Please state the figure in x; there is no need to write the unit.

COC1CC(C)CC2=C(N)C(=O)C=C(NC(=O)C(C)=CC=CC(OC)C(OC(N)=O)C(C)=CC(C)C1=O)C2=O (stereo not shown)	0

Note down Fold increase relative to equilibrium solubility recorded for "CO[C@H]1/C=C\C=C(/C)C(=O)NC2=CC(=O)C(NCC3CC3)=C(C[C@@H](C)C[C@H](OC)[C@H](O)[C@@H](C)/C=C(\C)[C@@H]1OC(N)=O)C2=O" 2

Note down Fold increase relative to equilibrium solubility recorded for CO[C@H]1C[C@H](C)CC2=C(N)C(=O)C=C(NC(=O)/C(C)=C/C=C\[C@H](OC)[C@@H](OC(N)=O)/C(C)=C/[C@H](C)C1OC(C)=O)C2=O (stereo partly shown) 2

Note down Fold increase relative to equilibrium solubility recorded for "CO[C@H]1/C=C\C=C(/C)C(=O)NC2=CC(=O)C(N3CCC3)=C(C[C@@H](C)C[C@H](OC)[C@H](O)[C@@H](C)/C=C(\C)[C@@H]1OC(N)=O)C2=O" 0

Note down Fold increase relative to equilibrium solubility recorded for "CO[C@H]1/C=C\C=C(/C)C(=O)NC2=CC(=O)C(NCCF)=C(C[C@@H](C)C[C@H](OC)[C@H](O)[C@@H](C)/C=C(\C)[C@@H]1OC(N)=O)C2=O" 5

Note down Fold increase relative to equilibrium solubility recorded for "CO[C@H]1/C=C\C=C(/C)C(=O)NC2=CC(=O)C(N)=C(C[C@@H](C)C[C@H](OC)[C@H](O)[C@@H](C)/C=C(\C)[C@@H]1OC(N)=O)C2=O" 200
